Target: T1, RADIL, Q96JH8
T1 sequence (Q96JH8 971-1071, limits assumed, looked up): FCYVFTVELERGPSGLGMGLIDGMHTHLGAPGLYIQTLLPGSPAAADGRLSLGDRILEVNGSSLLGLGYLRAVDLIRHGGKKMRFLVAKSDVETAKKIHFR
Test: holdup assay
Set-up: key: below the threshold = too weak to quantify, mostly under pKd 3.1 to 4
Details: plain residues with an end cap or a label only (N-terminal biotin on a linker: ttds)
PARAMETER: pKd

Before answering, review these 5 worked examples.
binder="IDNDTESTAL [ARHGAP17, Q68EM7]" parameter=pKd result="below the threshold"
binder="TVASEKESVM [SLC1A5, Q15758]" parameter=pKd result="below the threshold"
binder="QSARYRDTEL [TJP2, Q9UDY2]" parameter=pKd result="below the threshold"
binder="SVWLRKETRV [CYSLTR2, Q9NS75]" parameter=pKd result=3.7
binder="RSLEEEESQL [GRASP, Q7Z6J2]" parameter=pKd result=3.53

For every item below, please supply its pKd.
1. SRPQRTQTQV [HPV67-E6, A4U7F2]
2. IYVPEAQTRL [DLGAP4, Q9Y2H0]
3. PKTPPTDTSV [KIR3DL3, Q8N743]
4. GQDSREETQL [KCNT2, Q6UVM3]
5. STLTIFETAL [ABCC4, O15439]
6. ERKLSSESQV [LRP4, O75096]

Solution:
below the threshold
below the threshold
below the threshold
below the threshold
3.56
below the threshold

# batch size: 2; output pKd per entry
1. SSRTRRETQL [HPV16-E6, P03126]
2. VLRLQSETSV [VANGL1, Q8TAA9]

Solution:
[3.65, "below the threshold"]
